# PROCEDURE_TEXT: Cytotoxicity, lactate dehydrogenase (LDH) activity in cell supernatants
# Type: cell-based, mouse
# MEASUREMENT_CONTEXT: male, C57bl/6j, mouse, LPS-stimulated peritoneal macrophages
# Protocol: Peritoneal macrophages (PM) were isolated from the peritoneal exudate of 30 male C57bl/6j mice. To accumulate PM, 1 mL of 3% peptone solution was injected intraperitoneally. After 3 days, the mice were euthanized by cervical dislocation. […] The total number and viability of cells were assessed in a Goryaev counting chamber (Russia) with a 0.4% trypan blue staining (Sigma-Aldrich, St. Louis, MO, USA). […]
EXPERIMENTAL_READOUT: CC50 at 24 h

Q: Recorded CC50 at 24 h of Cc1nc2nnnn2c(NCCc2ccc(O)cc2)c1[N+](=O)[O-] , please.
A: > 100 µM

====

# PROCEDURE_TEXT: Cell viability of LPS-stimulated macrophages, MTT test
# Format: cell-based
# MEASUREMENT_CONTEXT: male, C57bl/6j, mouse
EXPERIMENTAL_READOUT: CC50 at 24 h

Q: GET /values?readout=CC50 at 24 h&item= Cc1nc2nnnn2c(NCCc2ccc(O)cc2)c1[N+](=O)[O-]
A: > 100 µM

====

# Test system: LPS-stimulated peritoneal macrophages of C57bl/6j mice
# PROCEDURE_TEXT: Cell viability of LPS-stimulated macrophages, MTT test
# Format: cell-based
# MEASUREMENT_CONTEXT: male, C57bl/6j, mouse, 24 h, 100 μM
EXPERIMENTAL_READOUT: Cell Viability vs. LPS Control, MTT Test (%)
Response body: numeric value in %, unit text excluded.

A selection of reference data follows.
C[C@@H]1C[C@H]2[C@@H]3CCC4=CC(=O)C=C[C@]4(C)[C@@]3(F)[C@@H](O)C[C@]2(C)[C@@]1(O)C(=O)CO [Dexamethasone, reference compound] : 104.21
C#CCSc1nc2ncc([N+](=O)[O-])c(NCCc3ccc(Cl)cc3)n2n1 [Compound 10f] : 38.37
C#CCSc1nc2ncc([N+](=O)[O-])c(NCCc3ccc(O)cc3)n2n1 [Compound 10g] : 30.9

Q: Data request, read-out Cell Viability vs. LPS Control, MTT Test, for Cc1nc2nnnn2c(NC(C)(C)C)c1[N+](=O)[O-]
A: 104.9

Q: I would be grateful if you could share the reported Cell Viability vs. LPS Control, MTT Test for Cc1nc2nnnn2c(NC(C)C)c1[N+](=O)[O-] .
A: 73.47

Q: Quick check: Cell Viability vs. LPS Control, MTT Test of Cc1nc2nnnn2c(NCCCO)c1[N+](=O)[O-] ?
A: 116.6

Q: Reported Cell Viability vs. LPS Control, MTT Test for Cc1nc2nnnn2c(NCC(O)CO)c1[N+](=O)[O-] (stereo not shown) : what is it?
A: 94.98

Q: # query: Cell Viability vs. LPS Control, MTT Test of entry Cc1nc2nnnn2c(NCCc2ccc(Cl)cc2)c1[N+](=O)[O-]
A: 102.67

Q: Requested read-out: Cell Viability vs. LPS Control, MTT Test. Entry: Cc1nc2nnnn2c(NCCO)c1[N+](=O)[O-]
A: 109.0

Q: Quick check: Cell Viability vs. LPS Control, MTT Test of Cc1nc2nnnn2c(NCCc2ccc(O)cc2)c1[N+](=O)[O-] ?
A: 84.65
